Each entry below lists one item and its recorded pIC50 value.
Target: cytoplasmic domain of the human VEGF receptor (VEGFR-2) (Homo sapiens, UniProt P35968)
Construct: The cytoplasmic domain of the human VEGF receptor (VEGFR-2) was expressed as a Histidine-tagged fusion protein; Histidine tag
Sequence (P35968 786-1356): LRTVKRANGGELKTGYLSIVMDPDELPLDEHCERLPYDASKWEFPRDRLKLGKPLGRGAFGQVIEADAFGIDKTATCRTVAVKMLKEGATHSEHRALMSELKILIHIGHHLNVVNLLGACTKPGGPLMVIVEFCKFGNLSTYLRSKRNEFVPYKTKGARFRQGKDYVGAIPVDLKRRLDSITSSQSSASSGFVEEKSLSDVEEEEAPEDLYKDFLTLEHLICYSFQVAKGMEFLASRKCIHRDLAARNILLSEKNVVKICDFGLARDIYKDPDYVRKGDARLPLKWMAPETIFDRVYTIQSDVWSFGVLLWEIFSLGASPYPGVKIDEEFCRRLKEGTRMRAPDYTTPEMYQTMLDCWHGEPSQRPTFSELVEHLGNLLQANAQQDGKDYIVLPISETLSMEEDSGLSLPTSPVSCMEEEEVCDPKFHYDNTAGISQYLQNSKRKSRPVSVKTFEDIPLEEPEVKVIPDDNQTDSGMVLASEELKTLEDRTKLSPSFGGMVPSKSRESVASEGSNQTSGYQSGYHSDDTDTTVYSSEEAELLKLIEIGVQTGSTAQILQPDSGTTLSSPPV
Assay: KDR Assay
Conditions: His-VEGFR-2; 3.6 μM ATP
Description: The cytoplasmic domain of the human VEGF receptor (VEGFR-2) was expressed as a Histidine-tagged fusion protein following infection of insect cells using an engineered baculovirus. His-VEGFR-2 was purified to homogeneity, as determined by SDS-PAGE, using nickel resin chromatography. […] The reaction was terminated by the addition of 100 μl of 2.5N H2SO4 to each well and read using a microplate ELISA reader set at 492 nm. […]
Recall that pIC50 is obtained by taking minus log10 of the concentration measured in molar.

O=C1Nc2ccc(Cl)cc2C1=CNc1ccc2cn[nH]c2c1 ... 6.32
O=C1Nc2ccccc2C1=CNc1ccc(OCCCCCl)cc1 ... 6.54
O=C1Nc2ccc(F)cc2C1=CNc1ccc(OCCCN2CCCCC2)cc1 ... 6.64
Cc1cccc2c1C(=CNc1ccc(N3CCOCC3)cc1)C(=O)N2 ... 7.30

In the following, a different molecule is considered.
For O=C1Nc2ccccc2C1=CNc1ccc(CCN2CCCCC2)cc1 the molecule record lists pIC50 as 6.60

###

Tested on: VEGF induced increases in intracellular calcium levels in HUVEC (human umbilical vein endothelial cells)
Test: VEGF Stimulated Ca++ Signal in vitro (FLIPR)
Assay type: cell-based
Conditions: 10 μM, VEGF 5 ng/mL
assay-endpoint: VEGF Stimulated Ca^++ signal assay % inhibition @ 10 μM (%)
Could you give me the number in %? Just the number is fine.

Record excerpt, results attached:
CCOC(=O)c1ccc(NC=C2C(=O)Nc3ccccc32)cc1 ... 9
NS(=O)(=O)c1ccc(NC=C2C(=O)Nc3ccccc32)cc1 ... 92.08
O=C1Nc2ccccc2C1=CNc1ccc(Oc2ccccc2)cc1 ... 16.00
O=C1Nc2ccc(F)cc2C1=CNc1ccc(N2CCCCC2)cc1 ... 97.59
COc1ccc(NC=C2C(=O)Nc3ccccc32)cc1OC ... 59.50
CC(=O)NS(=O)(=O)c1ccc(NC=C2C(=O)Nc3ccccc32)cc1 ... −14.50

For O=C1Nc2ccc(Cl)cc2C1=CNc1ccc2c(c1)OCO2 the compound record lists VEGF Stimulated Ca^++ signal assay % inhibition @ 10 μM as −2.50

For COc1ccc(NC=C2C(=O)Nc3ccc(Cl)cc32)cc1F the compound record lists VEGF Stimulated Ca^++ signal assay % inhibition @ 10 μM as 17.50

###

Tested on: VEGF-induced EBD extravasation
Assay: VEGF-induced Dermal Extravasation in Guinea Pig (Miles Assay)
Type: in vivo
Conditions: 75 mg/kg, PEG400, oral
Each entry below lists one item and its recorded Miles Assay % inhibition value.
Could you give me the number in %? Just the number is fine.

O=C1Nc2ccccc2C1=CNc1ccc(OCCCN2CCCC2)cc1 ... 91
CC1CN(c2ccc(NC=C3C(=O)Nc4ccc(F)cc43)cc2)CC(C)O1 (stereo not shown) ... 28
CCN(CC)CCCOc1ccc(NC=C2C(=O)Nc3ccccc32)cc1 ... 61
CN1CCN(c2ccc(NC=C3C(=O)Nc4ccccc43)cc2)CC1 ... 38
O=C1Nc2ccc(F)cc2C1=CNc1ccc(N2CCOCC2)cc1 ... 31

For Cc1cccc2c1C(=CNc1ccc(N)cc1)C(=O)N2 the compound record lists Miles Assay % inhibition as 38

For CN(C)c1ccc(NC=C2C(=O)Nc3ccccc32)cc1 the compound record lists Miles Assay % inhibition as 100

###

System: VEGF-induced EBD extravasation
Assay: VEGF-induced Dermal Extravasation in Guinea Pig (Miles Assay)
Format: in vivo
Details: 75 mg/kg, corn oil, oral
assay-endpoint: Miles Assay % inhibition (%)
Could you give me the number in %? Just the number is fine.

For O=C1Nc2ccccc2C1=CNc1ccc(OCCCCN2CCOCC2)cc1 [Example 206] the compound record lists Miles Assay % inhibition as 74

For O=C1Nc2ccccc2C1=CNc1ccc(NCCN2CCOCC2)cc1 [Example 235] the compound record lists Miles Assay % inhibition as 99

For CCN(CC)CCCOc1ccc(NC=C2C(=O)Nc3cc(F)ccc32)cc1 [Example 234] the compound record lists Miles Assay % inhibition as 95

For CCN(CC)CCCOc1ccc(NC=C2C(=O)Nc3cc(F)ccc32)cc1F [Example 250] the compound record lists Miles Assay % inhibition as 62

For O=C1Nc2cc(F)ccc2C1=CNc1ccc(NCCN2CCOCC2)cc1 [Example 243] the compound record lists Miles Assay % inhibition as 100

For CCN(CC)CCCOc1ccc(NC=C2C(=O)Nc3cccc(C)c32)cc1F [Example 249] the compound record lists Miles Assay % inhibition as 29

For CCN(CC)CCCCOc1ccc(NC=C2C(=O)Nc3ccccc32)cc1 [Example 207] the compound record lists Miles Assay % inhibition as 80

###

Target: cytoplasmic domain of the human VEGF receptor (VEGFR-2) (Homo sapiens, UniProt P35968)
Construct: The cytoplasmic domain of the human VEGF receptor (VEGFR-2) was expressed as a Histidine-tagged fusion protein; Histidine tag
Test: KDR Assay
Conditions: His-VEGFR-2; 3.6 μM ATP
Each entry below lists one item and its recorded pIC50 value.
Recall that pIC50 is obtained by taking minus log10 of the concentration measured in molar.

Record excerpt, results attached:
Cc1ccc(NC=C2C(=O)Nc3ccccc32)cc1O [Example 48] ... 6.13
Cc1cccc2c1C(=CNc1cccc(CO)c1)C(=O)N2 [Example 185] ... 6.48
O=C1Nc2ccc(Cl)cc2C1=CNc1ccc(NCCCN2CCOCC2)cc1 [Example 299] ... 6.85
Cc1cccc2c1C(=CNc1ccc(S(=O)(=O)NCCO)cc1)C(=O)N2 [Example 197] ... 7.05
CCOC(=O)Nc1ccc(NC=C2C(=O)Nc3ccccc32)cc1O [Example 134] ... 5.95

For NS(=O)(=O)c1ccc(NC=C2C(=O)Nc3ccccc32)cc1 [Example 38] the molecule record lists pIC50 as 6.30

For CCN(CC)CCCOc1ccc(NC=C2C(=O)Nc3ccc(F)cc32)cc1 [Example 233] the molecule record lists pIC50 as 6.72

For O=C1Nc2ccccc2C1=CNc1ccc(N2CCOCC2)cc1 [Example 40] the molecule record lists pIC50 as 6.60

For COc1ccc(NC=C2C(=O)Nc3ccccc32)cc1O [Example 49] the molecule record lists pIC50 as 6.29

For Cc1cccc2c1C(=CNc1ccc(CC(=O)O)cc1)C(=O)N2 [Example 131] the molecule record lists pIC50 as 6.11

For CN1CCCC(COc2ccc(NC=C3C(=O)Nc4cccc(F)c43)cc2)C1 (stereo not drawn) [Example 281] the molecule record lists pIC50 as 6.49

For CSc1ccc(NC=C2C(=O)Nc3ccccc32)cc1 [Example 136] the molecule record lists pIC50 as 6.31

For O=C1Nc2ccc(Cl)cc2C1=CNc1ccc(CO)cc1 [Example 111] the molecule record lists pIC50 as 6.37

For O=C1Nc2ccccc2C1=CNc1ccc(OCCCCN2CCSCC2)cc1 [Example 226] the molecule record lists pIC50 as 6.55

For O=C1Nc2cccc(F)c2C1=CNc1ccc(OCCCN2CCCCC2)cc1 [Example 255] the molecule record lists pIC50 as 6.36

For O=C1Nc2cc(F)ccc2C1=CNc1ccc(OCCCN2CCCCC2)cc1 [Example 239] the molecule record lists pIC50 as 6.82

For CC(O)c1cccc(NC=C2C(=O)Nc3ccccc32)c1 (stereo not drawn) [Example 182] the molecule record lists pIC50 as 5.78

For CCN(CC)c1ccc(NC=C2C(=O)Nc3ccccc32)cc1 [Example 188] the molecule record lists pIC50 as 6.74

For O=C1Nc2ccc(F)cc2C1=CNc1ccc(NCCN2CCOCC2)cc1 [Example 244] the molecule record lists pIC50 as 6.72

For CC(=O)Nc1ccc(NC=C2C(=O)Nc3cccc(C)c32)cc1 [Example 130] the molecule record lists pIC50 as 6.42

For CCN(CC)CCCOc1ccc(NC=C2C(=O)Nc3cc(F)ccc32)cc1 [Example 234] the molecule record lists pIC50 as 6.96

###

Biological target: cytoplasmic domain of the human VEGF receptor (VEGFR-2) (Homo sapiens, UniProt P35968)
Construct: The cytoplasmic domain of the human VEGF receptor (VEGFR-2) was expressed as a Histidine-tagged fusion protein; Histidine tag
Experiment: KDR Assay
Settings: His-VEGFR-2; 3.6 μM ATP
Description: The cytoplasmic domain of the human VEGF receptor (VEGFR-2) was expressed as a Histidine-tagged fusion protein following infection of insect cells using an engineered baculovirus. His-VEGFR-2 was purified to homogeneity, as determined by SDS-PAGE, using nickel resin chromatography. […] The reaction was terminated by the addition of 100 μl of 2.5N H2SO4 to each well and read using a microplate ELISA reader set at 492 nm. […]
Each entry below lists one item and its recorded pIC50 value.
Recall that pIC50 is obtained by taking minus log10 of the concentration measured in molar.

Record excerpt, results attached:
O=C1Nc2cccc(F)c2C1=CNc1ccc(NCCCN2CCOCC2)cc1 ... 6.57
O=C1Nc2ccccc2C1=CNc1ccc(OCCCN2CCCC2)cc1 ... 6.47
CCOc1ccc(NC=C2C(=O)Nc3ccccc32)cc1 ... 6.42

For CN1CCCC(COc2ccc(NC=C3C(=O)Nc4ccc(Cl)cc43)cc2)C1 (stereo not shown) the compound record lists pIC50 as 6.82

For O=C1Nc2ccccc2C1=CNc1ccc(NCCN2CCOCC2)cc1 the compound record lists pIC50 as 6.62

For Cc1cccc2c1C(=CNc1ccc(N3CC(C)OC(C)C3)cc1)C(=O)N2 (stereo not shown) the compound record lists pIC50 as 7.22

For CN1CCCC(COc2ccc(NC=C3C(=O)Nc4cc(F)ccc43)cc2)C1 (stereo not shown) the compound record lists pIC50 as 6.80

For COc1ccc(NC=C2C(=O)Nc3ccc(Cl)cc32)cc1 the compound record lists pIC50 as 6.59

For Cc1cccc2c1C(=CNc1cccc(S(=O)(=O)N(CCO)CCO)c1)C(=O)N2 the compound record lists pIC50 as 6.15

For O=C1Nc2cccc(F)c2C1=CNc1ccc(CCN2CCOCC2)cc1 the compound record lists pIC50 as 6.64

For COC(=O)c1ccc(NC=C2C(=O)Nc3cccc(C)c32)cc1OC the compound record lists pIC50 as 6.20

For Cc1cccc2c1C(=CNc1ccc(OCCN3CCCCC3)cc1)C(=O)N2 the compound record lists pIC50 as 6.82

For CN1CCN(c2ccc(NC=C3C(=O)Nc4ccc(F)cc43)cc2)CC1 the compound record lists pIC50 as 6.85

For COc1ccc(NC=C2C(=O)Nc3cccc(C)c32)cc1F the compound record lists pIC50 as 6.62

For O=C1Nc2ccccc2C1=CNc1ccc(C(=O)O)c(O)c1 the compound record lists pIC50 as 6.18

For O=C(O)Cc1ccc(NC=C2C(=O)Nc3ccccc32)cc1 the compound record lists pIC50 as 5.64

For CCN(CC)CCOc1ccc(NC=C2C(=O)Nc3cc(F)ccc32)cc1 the compound record lists pIC50 as 6.77

For Cc1cccc2c1C(=CNc1cccc(C(C)O)c1)C(=O)N2 (stereo not shown) the compound record lists pIC50 as 6.28

For Cc1cccc2c1C(=CNc1ccc(NC(=O)OC(C)(C)C)cc1)C(=O)N2 the compound record lists pIC50 as 6.57

Data origin: patent US20030225152A1
